So I've got a bunch of molecules here, and I need their Ki values.
TARGET: serotonin 5-HT1A receptor (Rattus norvegicus)
Construct: Rat cerebral cortex was homogenized in 20 volumes of ice-cold Tris-HCl buffer; from tissue; host or cells: rat brain (cerebral) cortex
Sequence (P19327 1-422): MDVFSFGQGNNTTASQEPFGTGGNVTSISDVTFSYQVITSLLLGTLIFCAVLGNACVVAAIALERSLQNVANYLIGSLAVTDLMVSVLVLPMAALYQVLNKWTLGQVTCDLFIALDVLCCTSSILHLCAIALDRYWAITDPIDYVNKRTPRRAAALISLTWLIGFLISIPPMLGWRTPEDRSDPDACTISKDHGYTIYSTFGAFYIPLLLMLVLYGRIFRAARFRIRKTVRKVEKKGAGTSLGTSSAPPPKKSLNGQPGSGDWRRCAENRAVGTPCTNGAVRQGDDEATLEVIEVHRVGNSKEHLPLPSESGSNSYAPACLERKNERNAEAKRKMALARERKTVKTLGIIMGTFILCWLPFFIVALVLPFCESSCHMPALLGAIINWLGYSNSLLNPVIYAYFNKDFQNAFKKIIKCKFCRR
TEST NAME: 5-HT1A binding assay ([3H]8-OH-DPAT, rat brain cortex)
COND: read-out: Ki±SEM, 5HT1A
Numbers only, in µM.

Guide cases for Ki, answers given:
COc1ccc(-c2nnc(SCCCN3CCC(c4noc5cc(F)ccc45)CC3)o2)cc1
0.0068
Fc1ccc2c(C3CCN(CCCSc4nnc(-c5ccc(C(F)(F)F)cc5)o4)CC3)noc2c1
0.051
c1ccc(-c2nnc(SCCCN3CCN(c4nsc5ccccc45)CC3)o2)cc1
0.019

Task: Which Ki is listed for Fc1ccc2c(C3CCN(CCCSc4nnc(-c5ccccc5)o4)CC3)noc2c1 ?
Result: 0.0189
